- System: PPARa:RXRa (NR concentration 270 nM, RXRa partner concentration 90 nM)
- experiment: PBM binding z-score (relative to random genomic background probes); higher = stronger binding; sequences stand for … in GC…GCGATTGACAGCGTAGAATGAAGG
Provide the recorded PBM binding z-score for the entries that follow.
One number for each entry.

Examples from the recorded data:
{"columns": ["biopolymerSequence", "PBM binding z-score"],
 "data": [
  ["CCGAGTAGGTTACGAGGGGGGATTCAGTGCGAAT", 2.99],
  ["CCGAGTAGTTTACGAGGGGGCATTCAGTGCGAAT", 2.17]
]}

Quick request: PBM binding z-score for each listed item, please.
1. CCTACTGGGCGACGAAAGGTCATTGATTCAGTGA
2. CGAACTCGGTCACCAGGACAGTGAAGAGGTTGGA
3. ATATGTAGGTTAGAGTCATTCAGAAAGTAGGGAA
4. ATATGGAGGTTAAGGGTCATTCAGGTTGGTTCGC

Result:
4.31
1.76
2.75
6

* * *

Provide the recorded PBM binding z-score for the entries that follow.
- Tested on: PPARg:RXRa (NR concentration 180 nM, RXRa partner concentration 90 nM)
- experiment: PBM binding z-score (relative to random genomic background probes); higher = stronger binding; sequences stand for … in GC…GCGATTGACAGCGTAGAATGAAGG
Give bare numbers.

{"columns": ["biopolymerSequence", "reported"],
 "data": [
  ["CCTACTGGGCCATTCAGAGGTCACTGATCATATG", 2.57],
  ["ATATGTAGCTTAAGGGTCATTCAGGTTGGTTCGC", 3.93],
  ["ACTAGTTGGTCACCTGAGGTCACACACAATTCGG", 2.75],
  ["CCTGCTAGGTCTATGGTCAGCTAAAGCAGCTCGC", -0.485],
  ["TCTCGGAGGACACGAAAGGGCAGAGCTCGACATC", 0.29]
]}

Quick request: PBM binding z-score for each listed item, please.
1. CCGAGTAGGTTACGGGGGGGCATTCAGTGCGAAT
2. ATATGTAGGTTAGCTGGCGTCATTCAGACTAGGC

Result:
1. 4.54
2. 2.61

* * *

- System: PPARg DBDmut IVT, anti-PPARg (DBD mutation: PPARg1 K132A/R137A, NR concentration 270 nM)
- experiment: PBM binding z-score (relative to random genomic background probes); higher = stronger binding; sequences stand for … in GC…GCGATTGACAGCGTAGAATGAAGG
propertyName: PBM binding z-score
Numbers only.

Examples from the recorded data:
{"columns": ["biopolymerSequence", "assayedTarget", "PBM binding z-score"],
 "data": [
  ["CAACCTAGGTCACCGGAAGGTCAAAGTCCGCATG", "PPARg DBDmut IVT, anti-PPARg (DBD mutation: PPARg1 K132A/R137A, NR concentration 270 nM)", 0.904],
  ["CCTTACGGGTCGCTGACAGGTTATAGCATTTGGA", "PPARg DBDmut IVT, anti-PPARg (DBD mutation: PPARg1 K132A/R137A, NR concentration 270 nM)", -0.76]
]}

Problem: Return reported PBM binding z-score; argument: `CCTACTGGGCCACGAAAGGTGATTGATTCAGTGA`
Result: -0.709
